biological target: HLA-C*04:01; experiment: thermal melting temperature (Tm) of peptide-HLA complex; higher = more thermostable pHLA complex; settings: C1R-A*02:01
Assign Y to entries whose thermal melting temperature meets or exceeds 50 °C; assign N to the rest.

Asked: Determine whether measured thermal melting temperature meets or exceeds 50 °C for FFEEFGKL
Given back: N

Asked: Could you tell me if the measured thermal melting temperature of SFDTGFTSF reaches 50 °C or more?
Given back: N

Asked: Has FWDPSVNLF a recorded thermal melting temperature greater than or equal to 50 °C?
Given back: Y

Asked: Is thermal melting temperature for AFDASRTSF at or above 50 °C?
Given back: Y

Asked: Determine whether measured thermal melting temperature meets or exceeds 50 °C for AHDVDPIEL
Given back: N

Asked: // inclusive: thermal melting temperature at least 50 °C? input: TYEGKPIFL
Given back: Y

Asked: Given TFDPMTRQI , state whether its thermal melting temperature is at least 50 °C.
Given back: Y

Asked: Check the entry AYDDKIYYF : does thermal melting temperature equal or exceed 50 °C?
Given back: Y
